Tested on: Human alphaherpesvirus 1
measurement notes: Inhibition of herpes simplex virus type 1 (HSV-1) F strain
Assay type: functional, organism-based
Answer each item with its documented EC50.

For every listed record, write down its EC50.
1. Nc1cc2ncn(CCOCP(=O)(O)O)c2c(O)n1
2. Nc1nnc(N)c2c1ncn2CCOCP(=O)(O)O

### Response
1: > 200 µg/mL; 2: > 200 µg/mL

====

System: Human alphaherpesvirus 1
measurement notes: Inhibition of herpes simplex virus type 1 (HSV-1) F strain
Format: functional, organism-based
assay readout: EC50

// solved cases for EC50 follow
Nc1nccc(OCCOCP(=O)(O)O)n1; > 200 µg/mL
O=P(O)(O)COCCn1cnc2c(S)ncnc21; > 400 µg/mL
CC(C)OP(=O)(COCCn1c(Br)nc2c(N)nc(N)nc21)OC(C)C; > 400 µg/mL
Nc1cc(N)c2ncn(CCOCP(=O)(O)O)c2n1; > 400 µg/mL

Now consider a different compound.
### Prompt Field request: EC50 | item: CC(C)OP(=O)(COCCn1cnc2nc(N)nc(O)c21)OC(C)C
### Response > 200 µg/mL

Cited source for all entries: ChEMBL document CHEMBL1132160
